Measured values drawn from patent US10953012B2 for this set.

Measured IC50 on hPASK (kinase domain) (Homo sapiens (Human)) follows.
Sequence (Q96RG2 999-1251): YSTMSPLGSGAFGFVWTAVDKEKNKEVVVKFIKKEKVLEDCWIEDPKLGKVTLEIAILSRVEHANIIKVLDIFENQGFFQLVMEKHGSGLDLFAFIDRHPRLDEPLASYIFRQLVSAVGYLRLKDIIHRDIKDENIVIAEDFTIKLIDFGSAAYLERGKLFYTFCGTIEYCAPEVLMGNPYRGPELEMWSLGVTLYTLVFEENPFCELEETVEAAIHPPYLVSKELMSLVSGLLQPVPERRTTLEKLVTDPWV

Study these solved cases before continuing.
{"LINE NOTATION": "O=c1c2c([nH]c3c(-c4ccc(Cl)cc4)c(Cc4ccccc4)nn13)CCC2", "SYSTEM NAME": "hPASK (kinase domain) (Homo sapiens (Human))", "IC50": "≥ 10 µM"}
{"LINE NOTATION": "COc1ccc(-c2cc(=O)n3nc(C)c(-c4ccc(F)cc4)c3[nH]2)cc1", "SYSTEM NAME": "hPASK (kinase domain) (Homo sapiens (Human))", "IC50": "≤ 10 µM"}
{"LINE NOTATION": "O=c1cc(-c2ccccc2)[nH]c2c(-c3cccc4ccccc34)c(Cc3ccccc3)nn12", "SYSTEM NAME": "hPASK (kinase domain) (Homo sapiens (Human))", "IC50": "≥ 10 µM"}
{"LINE NOTATION": "O=c1c2c([nH]c3c(-c4ccccc4)c(-c4ccccc4)nn13)CCC2", "SYSTEM NAME": "hPASK (kinase domain) (Homo sapiens (Human))", "IC50": "≤ 10 µM"}
{"LINE NOTATION": "COc1ccc(Cc2nn3c(=O)cc(C)[nH]c3c2-c2ccccc2)cc1", "SYSTEM NAME": "hPASK (kinase domain) (Homo sapiens (Human))", "IC50": "≥ 10 µM"}

Give IC50 for each listed item.
1. Cc1nn2c(=O)cc(-c3ccc4cc[nH]c4c3)[nH]c2c1Cc1ccccc1
2. Cc1nn2c(=O)cc(-c3ccc(Cl)cc3)[nH]c2c1-c1ccccc1
3. Cc1ccc(-c2cc(=O)n3nc(C)c(-c4ccccc4)c3[nH]2)cc1
4. O=c1cc(-c2ccc3c(c2)OCO3)[nH]c2c(-c3cccnc3)cnn12

RESULT:
1: ≤ 10 µM; 2: ≤ 10 µM; 3: ≥ 10 µM; 4: ≤ 10 µM
